Species: Cavia porcellus
ASSAY_PROTOCOL: Intrinsic activity at muscarinic M2 receptor in guinea pig atrium assessed as inhibition of electrically-stimulated muscle contraction relative to bathanecol
Assay type: tissue-based
MEASUREMENT_SETUP: Cardiac atrium
READOUT_NAME: Intrinsic activity
Simply state the number, no unit and no words.

Take a look at these entries with their results.
MOLECULE	READOUT_NAME	RECORDED_NUMBER
C[C@@H]1O[C@H](C[N+](C)(C)C)COC1(C)C.[I-] (relative stereo)	Intrinsic activity	0.33
CC1(C)COC[C@@H](C[N+](C)(C)C)O1.[I-]	Intrinsic activity	0.73
C[C@H]1OC[C@@H](C[N+](C)(C)C)O[C@@H]1C.[I-] (relative stereo)	Intrinsic activity	0.89
C[C@@H]1OC[C@@H](C[N+](C)(C)C)O[C@H]1C.[I-] (relative stereo)	Intrinsic activity	0.8
CC1(C)OC[C@@H](C[N+](C)(C)C)OC1(C)C.[I-]	Intrinsic activity	0.71

Ask: I'd like to know its Intrinsic activity. The molecule in question is C[C@@H]1O[C@H](C[N+](C)(C)C)CO[C@@H]1C.[I-] (relative stereo)
Result: 0.91

Ask: Please do the same for C[C@H]1COC[C@@H](C[N+](C)(C)C)O1.[I-] (relative stereo) as well.
Result: 1

Ask: // same read-out, input: C[C@@H]1OC[C@@H](C[N+](C)(C)C)OC1(C)C.[I-] (relative stereo)
Result: 0.46

Ask: Can you check C[C@@H]1OC[C@@H](C[N+](C)(C)C)O[C@@H]1C.[I-] (relative stereo) next?
Result: 0.27
